These data points were gathered from paper PMC2756588.

Molecular target: T1, Bud14, P27637
T1 sequence (P27637 247-328, looked up): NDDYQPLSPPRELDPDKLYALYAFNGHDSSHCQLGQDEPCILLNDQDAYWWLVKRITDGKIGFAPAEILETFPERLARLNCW
Experiment: SPOT array
Details: median of control spots 956
Endpoint name: SPOT intensity

Record excerpt, results attached:
>>> df
            binder   endpoint_name  assay_value
0  LEFRAILFIPKRAPF  SPOT intensity           13
1  NENKKLPPAPTVFGL  SPOT intensity            2
2  LSKRLPLRFPEHTSS  SPOT intensity            1

1: FPPKRKPLLRPQRSD
2: DHPKGPPPPPPPDEK
3: GATNNAPTLPKRKNP
4: RLPAPPPPPRRGPAP
Asked: # rank by SPOT intensity, ascending (min first) I would appreciate it if you listed the labels in the requested order.
Given back: 3, 2, 4, 1
